B1: PhoQ; a variant is named by its letters at X, in order, P23837 (parent)
chain: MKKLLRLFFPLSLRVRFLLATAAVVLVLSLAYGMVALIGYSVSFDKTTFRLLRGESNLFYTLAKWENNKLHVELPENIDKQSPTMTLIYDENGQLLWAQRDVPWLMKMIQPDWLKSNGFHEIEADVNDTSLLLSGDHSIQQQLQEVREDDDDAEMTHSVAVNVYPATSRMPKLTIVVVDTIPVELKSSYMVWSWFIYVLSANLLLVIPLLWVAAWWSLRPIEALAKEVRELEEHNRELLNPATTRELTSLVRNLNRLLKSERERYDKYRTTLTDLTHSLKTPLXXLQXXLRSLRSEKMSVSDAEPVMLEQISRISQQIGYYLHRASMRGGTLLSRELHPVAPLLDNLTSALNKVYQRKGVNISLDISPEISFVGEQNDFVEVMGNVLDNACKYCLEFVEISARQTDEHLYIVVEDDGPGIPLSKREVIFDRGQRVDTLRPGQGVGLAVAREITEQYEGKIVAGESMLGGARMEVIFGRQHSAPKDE

- Variants of: B1
- Experiment summary: enrichment ratio after two sorts for PhoP signalling (ratio (wild type AVST 3.29)); higher = more functional
- Applied conditions: with PhoP (E. coli)
In all, about 140,000 sequences were measured (“enrichment ratio after two sorts for PhoP signalling”: median about 0, highest 2% from about 11 on). The full list was thinned out, with the highest values kept by preference.
Metric: enrichment ratio
Give the figure only, with no unit attached.

TEGG	5.71

Item SMSI : provide enrichment ratio
12.9

Item MCAN : provide enrichment ratio
22.5

Item TTML : provide enrichment ratio
28.8

Item AGML : provide enrichment ratio
16.1

Item SSMF : provide enrichment ratio
12.7
